- TEST_METHOD_NOTES: folding stability dG unfold (combined trypsin and chymotrypsin); higher = more stable
Returns Met if the recorded folding stability dG unfold is greater than or equal to 1 kcal/mol, and Not met otherwise.

Q: Hello, I need to know if SAGGPPIMLRIKHPGPDQREKIKEIAQDYPIEPVNPTPGEHEFRFNGPEQVNRLQDIAEKNGWKIEISAGGS [r16_88_TrROS] has measured folding stability dG unfold not below 1 kcal/mol. Thanks!
A: Not met

Q: Hello, I need to know if SAGGSAGGSALKINKLLKEGYEVEVTPPDGKKYVLKKGDSAKKPKEKFNLPENAKIKIKPLSAGGSAGGSAG [r3_216_TrMRF] has measured folding stability dG unfold not below 1 kcal/mol. Thanks!
A: Not met

Q: Hello, I need to know if SWMFMIEVHDPKNGKERTVPINMPKEQVLDQIREAQEKGPRIEIWGIPPNAIKEIAEEAKLPVEIHPMPPSA [r9_1207_TrROS] has measured folding stability dG unfold not below 1 kcal/mol. Thanks!
A: Not met

Q: Hello, I need to know if SAGMTIKIKNKKTNKVITIERRPDGTTVKVKVYDKNGKLVKTYPEGMTLEELLKKFPNAKVEVVEVEKPSAG [r5_314_TrROS_Hall] has measured folding stability dG unfold not below 1 kcal/mol. Thanks!
A: Met

Q: Hello, I need to know if SAGGMKITKEGNELTLTYPNLTVTYDPNTGKMTITNPATGKTVTIPVPATSLEEKLAAVEEVKAALPSAGGS [r8_447_JUSTAS] has measured folding stability dG unfold not below 1 kcal/mol. Thanks!
A: Not met

Q: Hello, I need to know if SAGGSAGGEDKYLVVEFTVPEGKAEEFIAEVKKKIPPNWKIERVEIVEKTEDGLYRVRVVLKPGSAGGSAGG [r6_340_TrMRF] has measured folding stability dG unfold not below 1 kcal/mol. Thanks!
A: Met

Q: Hello, I need to know if SAGGSAKKPKPVKYNVVITLKDGKTITLTLPFGSLEKAKEFIEKNFPDAIVTYNPKTGNVTVYLPVSAGGSA [r15_313_TrMRF] has measured folding stability dG unfold not below 1 kcal/mol. Thanks!
A: Met

Q: Hello, I need to know if SAGGDNKPKVYPITFMIPPDDIKPGDEIPIDEIADNLGIPPNYTIKIKEVQPNPEDGYYMYRIEIVWSAGGS [r16_165_TrROS] has measured folding stability dG unfold not below 1 kcal/mol. Thanks!
A: Met

Q: Hello, I need to know if SAGGSAGGSAGGMGPPPIETIVIEKPLSEEEYEALKKAYPDKKVTVSEIPGTPNKIATIESAGGSAGGSAGG [r17_254_JUSTAS] has measured folding stability dG unfold not below 1 kcal/mol. Thanks!
A: Not met

Q: Hello, I need to know if SAGGSAGGMILLETEEGEPKAVILFELRDPLFGGEIPLEFLEELAEEIKEKFPEIKHIELIGLPSAGGSAGG [r6_793_TrMRF] has measured folding stability dG unfold not below 1 kcal/mol. Thanks!
A: Met

Q: Hello, I need to know if SAGMSLVPLEELARAWAEERGLPVLDVEVPESRSPATRHVTITLTLRDPATGALTTETRELVIPEEELGSAG [r5_421_JUSTAS] has measured folding stability dG unfold not below 1 kcal/mol. Thanks!
A: Not met

Q: Hello, I need to know if SAGGSAGGSAGGKPTIKLKVTITNENGEKIEIEVEAESEEEALEALKALLPPGWKVEIESAGGSAGGSAGGS [r10_145_TrROS_Hall] has measured folding stability dG unfold not below 1 kcal/mol. Thanks!
A: Met

Q: Hello, I need to know if SAGKKVKKITLTIKNKETGEYYKAEVIENENGEKYIKIINKKTGKIYIFKIKDGKIEPVKEISLKDIKPSAG [r5_619_TrROS_Hall] has measured folding stability dG unfold not below 1 kcal/mol. Thanks!
A: Met

Q: Hello, I need to know if SAGGALKELPDGSVELYYNTETGLFTVRVRHPDKPPLVFTVESPEDALKFAKALEEKGIKIDKVVPAPSAGG [r13_727_TrMRF] has measured folding stability dG unfold not below 1 kcal/mol. Thanks!
A: Met

* * *

- TEST_METHOD_NOTES: folding stability dG unfold from chymotrypsin proteolysis; higher = more stable
Kindly state folding stability dG unfold for each of the entries shown.
Kindly report the value followed by its unit.

Q: Supply measured folding stability dG unfold of SAVPLELPLSDEELRELLEKHSVDSTITLTLKVGDRWVRVTVTLKEVKREPNRLSVSVELTVTPLPPEESAG [r14_335_JUSTAS] in your reply.
A: 4.08 kcal/mol

Q: Supply measured folding stability dG unfold of SAGGSAGGSAKPDPGAPYPWKIVEVVPIRIDMYFKFPGEPFKMDIEIPILVMVDPDNGKIFSAGGSAGGSAG [r3_391_TrROS] in your reply.
A: 2.94 kcal/mol

Q: Supply measured folding stability dG unfold of SAGGSAGGNPVRYRVTITVTSPTGGSPVIELELDDPAELAEVEALAAELAAAPVTTTVTVEPIGSAGGSAGG [r6_743_JUSTAS] in your reply.
A: 0.584 kcal/mol

Q: Supply measured folding stability dG unfold of SAGGSAGGSSPSSVSTYDIEFPDGTKIKITVTLGPGTPVVEITTLTESPPVKRVANTEEVKFESAGGSAGGS [r20_100_JUSTAS] in your reply.
A: 0.995 kcal/mol

Q: Supply measured folding stability dG unfold of SAMVYPYLLRVYLPGSGEVVYFPASSLEEAVELLEEVAALPNVNSVDLYTPDGTKVHFLIDVPPEAFEESAG [r14_747_TrMRF] in your reply.
A: 2.89 kcal/mol

Q: Supply measured folding stability dG unfold of SAGGPKPKTYDIMIPFDSEEEAEKLMENPEWAKEIAKEIAPLFPGYDIKVEVSWHPETGYFMVKITVSAGGS [r16_320_TrROS] in your reply.
A: 4.12 kcal/mol

Q: Supply measured folding stability dG unfold of SAGGSARALLEELEVLSEEDRGDFTVVTVKGPAAEYPAEEVRAALEALGIAVEYDPATGEVTVYVASAGGSA [r15_599_JUSTAS] in your reply.
A: 0.964 kcal/mol

* * *

Kindly state folding stability dG unfold for each of the entries shown.
- TEST_METHOD_NOTES: folding stability dG unfold (combined trypsin and chymotrypsin); higher = more stable
API: value field is a number in kcal/mol; no unit string.

Q: Supply measured folding stability dG unfold of SAGGEKPKEVEIEEVVVKNEETGEEVRFFRIRDKETDEWYVLAVVRNKDGEEKVVKMSAEEAKKLLESAGGS [r8_421_TrROS_Hall] in your reply.
A: 3.59

Q: Supply measured folding stability dG unfold of SAGGSAGGSEKTLVTRTPDGYLLTLTEFTLPDGSKVTLATITFPNTGKTVTVPASLVPADATGSAGGSAGGS [r12_797_TrMRF] in your reply.
A: 2.63

Q: Supply measured folding stability dG unfold of SAGGSAGGSAGGSKPDPEIEQERNPEKGYRTIKIEFPDKPRTIMVKNLPPDDPALRDAFSAGGSAGGSAGGS [r4_328_TrROS] in your reply.
A: -0.349

Q: Supply measured folding stability dG unfold of SAGGMKVRIRIEVDGKTLELELEVEPGETVKITLEVNGEEVTITFDAATGEITIELPPGAKIVEIEPSAGGS [r16_761_TrROS_Hall] in your reply.
A: 4.01

Q: Supply measured folding stability dG unfold of SAGGLPEEVEKLAEILAKLPPVVPVPVTFPDGVEVVYFPPTGFVAVRFYERDENGEWVLVGETFFPVSAGGS [r16_243_TrMRF] in your reply.
A: 2.98

Q: Supply measured folding stability dG unfold of SAGGSAGGSANAKIPDGQKVTLDFRVMIMMRMWQFDENGGKMEPRMMMIPIEVEIEIKIPPNASAGGSAGGS [r12_668_TrROS] in your reply.
A: 4.71

Q: Supply measured folding stability dG unfold of SAGGSAGGSAGGGMSLSYTVTTSTTVVPAPDGVTVLHPTTTTFPGGPTTTTTTVTVEPAGSAGGSAGGSAGG [r7_701_JUSTAS] in your reply.
A: 0.409

Q: Supply measured folding stability dG unfold of SAGGSAIKIDPDYGTIEIYNPDNGKEIEIPIDGLPPGRKMDIEINNDKIEIKMPGGTRELPIDDIKSAGGSA [r15_864_TrROS] in your reply.
A: 0.194

Q: Supply measured folding stability dG unfold of SAGGSAGGSAGGMTVERREVFPLGESLVITETREVLDPSSDVPVTVETRVEVLPPEVPPSAGGSAGGSAGGS [r10_599_JUSTAS] in your reply.
A: 0.033

Q: Supply measured folding stability dG unfold of SMKLKPGQTAKIVEIKENYIYIEVNGKKYKISLEELKEKGYEIKIVNGKIVEIRPKPKKKLSEEELKKLKSA [r9_842_TrROS_Hall] in your reply.
A: 1.16

Q: Supply measured folding stability dG unfold of SAGGSAGGSSVEYTFLSKNPEEAKKKFEEKIKEIEEKGEGKIEKAEFTIVSPDNPEYLKLISSSAGGSAGGS [r12_551_JUSTAS] in your reply.
A: 0.259

Q: Supply measured folding stability dG unfold of SAGGSAGGSAGGKKTITVPKGAVVRITYKNGEKKEVKAGETITIEDLPEDVKIEVVKVKKSAGGSAGGSAGG [r7_968_TrROS_Hall] in your reply.
A: 2.19

Q: Supply measured folding stability dG unfold of SAGGSAGGSAGGGSMTLSLDTRPEDGTLVLVSTFVDPASGLVSVTTTYPDSTVTTTLPVGSAGGSAGGSAGG [r7_402_JUSTAS] in your reply.
A: 0.528
